Data credit: ChEMBL document CHEMBL2021808

molecular target: Enoyl-[acyl-carrier-protein] reductase [NADH] (Mycobacterium tuberculosis); assay: Inhibition of Mycobacterium tuberculosis recombinant InhA expressed in Escherichia coli using trans-2-dodecenoyl-coenzyme-A as substrate at 50 uM
Activity calls are given as the source filed them. The calls are words filed in the database; no cut-off is given here.
ENDPOINT_NAME: inhibition

[
  {
    "SAMPLE_SMILES": "CCCCCCc1cn(Cc2ccccc2)nn1",
    "TESTED_SYSTEM": "Enoyl-[acyl-carrier-protein] reductase [NADH] (Mycobacterium tuberculosis)",
    "inhibition": "21%"
  },
  {
    "SAMPLE_SMILES": "CCCCCCCCCCCCn1cc(COc2ccc(Cl)cc2Cl)nn1",
    "TESTED_SYSTEM": "Enoyl-[acyl-carrier-protein] reductase [NADH] (Mycobacterium tuberculosis)",
    "inhibition": "< 5%"
  },
  {
    "SAMPLE_SMILES": "CCCCCCCCCCc1cnnn1CCc1ccccc1",
    "TESTED_SYSTEM": "Enoyl-[acyl-carrier-protein] reductase [NADH] (Mycobacterium tuberculosis)",
    "inhibition": "33%"
  },
  {
    "SAMPLE_SMILES": "CCCCCCCCCCc1cn(CCc2ccccc2OC)nn1",
    "TESTED_SYSTEM": "Enoyl-[acyl-carrier-protein] reductase [NADH] (Mycobacterium tuberculosis)",
    "inhibition": "48%"
  },
  {
    "SAMPLE_SMILES": "CCCCCCCCCCCCn1cc(COc2ccccc2)nn1",
    "TESTED_SYSTEM": "Enoyl-[acyl-carrier-protein] reductase [NADH] (Mycobacterium tuberculosis)",
    "inhibition": "54%"
  },
  {
    "SAMPLE_SMILES": "CCCCCCc1cn(Cc2cccc(OC)c2)nn1",
    "TESTED_SYSTEM": "Enoyl-[acyl-carrier-protein] reductase [NADH] (Mycobacterium tuberculosis)",
    "inhibition": "inactive"
  },
  {
    "SAMPLE_SMILES": "CCCCCCCCCCc1cn(CCc2ccc(OC)c(OC)c2)nn1",
    "TESTED_SYSTEM": "Enoyl-[acyl-carrier-protein] reductase [NADH] (Mycobacterium tuberculosis)",
    "inhibition": "21%"
  },
  {
    "SAMPLE_SMILES": "CCCCCCCCCCc1cn(Cc2cc(OC)cc(OC)c2)nn1",
    "TESTED_SYSTEM": "Enoyl-[acyl-carrier-protein] reductase [NADH] (Mycobacterium tuberculosis)",
    "inhibition": "24%"
  },
  {
    "SAMPLE_SMILES": "CCCCCCc1cn(Cc2cc(C)cc(C)c2)nn1",
    "TESTED_SYSTEM": "Enoyl-[acyl-carrier-protein] reductase [NADH] (Mycobacterium tuberculosis)",
    "inhibition": "19%"
  },
  {
    "SAMPLE_SMILES": "CCCCCCCCc1cn(CCc2ccccc2C)nn1",
    "TESTED_SYSTEM": "Enoyl-[acyl-carrier-protein] reductase [NADH] (Mycobacterium tuberculosis)",
    "inhibition": "37%"
  }
]

inhibition recorded for this compound, CCCCCCCCn1cc(-c2cccc(O)c2)nn1 , is inactive

inhibition recorded for this compound, CCCCCCCCCCCCc1cn(Cc2ccccc2)nn1 , is 52%

inhibition recorded for this compound, CCCCCCCCCCCCc1cn(Cc2cccc(OC)c2)nn1 , is 46%

###

Collected MIC values appear next to each entry.
test system: Mycobacterium tuberculosis; experiment: Antimycobacterial activity against Mycobacterium tuberculosis H37Rv by two-fold serial dilution method; assay type: functional

Consider the following illustrative entries.
[
  {
    "SAMPLE_SMILES": "CCCCCCCCCCc1cn(Cc2ccccc2)nn1",
    "MIC": "> 4 µg/mL"
  },
  {
    "SAMPLE_SMILES": "CCCCCCCCc1cn(Cc2ccccc2)nn1",
    "MIC": "> 4 µg/mL"
  },
  {
    "SAMPLE_SMILES": "CCCCCCCCCCc1cnnn1CCc1ccccc1",
    "MIC": "> 4 µg/mL"
  }
]

Item: CCCCCCCCCCCCn1cc(COc2ccc(Cl)cc2OC)nn1 | System: Mycobacterium tuberculosis | MIC: > 4 µg/mL

Item: CCCCCCCCCCCCn1nncc1CCc1ccccc1 | System: Mycobacterium tuberculosis | MIC: > 4 µg/mL

Item: CCCCCCCCCCCCc1cn(Cc2ccccc2)nn1 | System: Mycobacterium tuberculosis | MIC: > 4 µg/mL

Item: CCCCCCCCCCc1cn(Cc2cccc(OC)c2)nn1 | System: Mycobacterium tuberculosis | MIC: > 4 µg/mL

Item: CCCCCCCCCCc1cn(Cc2cc(OC)cc(OC)c2)nn1 | System: Mycobacterium tuberculosis | MIC: > 4 µg/mL

Item: CCCCCCc1cn(Cc2ccccc2)nn1 | System: Mycobacterium tuberculosis | MIC: 25 µg/mL

Item: CCCCCCCCCCCCc1cn(CCc2ccccc2OC)nn1 | System: Mycobacterium tuberculosis | MIC: 2 µg/mL

Item: CCCCCCc1cn(Cc2cccc(OC)c2)nn1 | System: Mycobacterium tuberculosis | MIC: > 4 µg/mL

Item: CCCCCCCCCCCCn1cc(COc2ccccc2)nn1 | System: Mycobacterium tuberculosis | MIC: 2 µg/mL
